Reference for the values: patent US20180099967A1

Test system: HIV-1
Test: microbe, parasite or virus in culture
Format: cell-based, HIV-1 (H9IIIB or NL4-3 virus)
Conditions: Human immunodeficiency virus 1, read-out: WILD TYPE CELL ASSAY Viking IP (0% NHS) (nM)
reported-endpoint: IC50 (nM)
The figure you give is taken to be in nM; do not add the unit.

Entry under test: CCN1C[C@H]2C[C@@H](NCCOC)c3c(C(=O)NCc4ccc(F)cc4F)c(=O)c(O)c(n32)C1=O [Compound 28] . Its IC50 was 6

Entry under test: CCN1C[C@H]2C[C@H](NCCOC)c3c(C(=O)NCc4ccc(F)cc4F)c(=O)c(O)c(n32)C1=O [Compound 27] . Its IC50 was 17

Entry under test: CCN1C[C@H]2C[C@H](NC(C)=O)c3c(C(=O)NCc4ccc(F)cc4F)c(=O)c(O)c(n32)C1=O (single isomer, unassigned) [Compound 54] . Its IC50 was 6

Entry under test: CCN1C[C@H]2C[C@@H](NS(C)(=O)=O)c3c(C(=O)NCc4ccc(F)c(F)c4F)c(=O)c(O)c(n32)C1=O [Compound 48] . Its IC50 was 7

Entry under test: CCN1C[C@@H]2C[C@H](NC)c3c(C(=O)NCc4ccc(F)cc4F)c(=O)c(O)c(n32)C1=O [Compound 6] . Its IC50 was 5

Entry under test: CCN1C[C@H]2C[C@H](N)c3c(C(=O)NCc4ccc(F)cc4F)c(=O)c(O)c(n32)C1=O [Compound 3] . Its IC50 was 10

Entry under test: CCN1C[C@H]2C[C@@H](NS(C)(=O)=O)c3c(C(=O)NCc4ccc(F)c(Cl)c4F)c(=O)c(O)c(n32)C1=O [Compound 50] . Its IC50 was 2
